tested on: Oryza sativa, (L.) Tebonnet; test: Rice tolerance to post-transplant applications under flooded paddy conditions (Example 187), ORYSAT (Rice, Tebonnet); settings: Rate 0.0620 kg/ha, rated three to four weeks after treatment; further: meaning of each grade not given here
readout-type: herbicidal effect rating ORYSAT

> print(dat)
                                   compound  recorded.value
1  Cc1ccc(OC(C)C(=O)NS(=O)(=O)C(C)C)c(-c2nsc3ccc(-n4c(=O)cc(C(F)(F)F)n(C)c4=O)cc23)c1 (stereo not shown) [Example 568]             0.0
2  COC(=O)C(C)Oc1cccc(-c2nsc3ccc(-n4c(=O)cc(C(F)(F)F)n(C)c4=O)cc23)c1 (stereo not shown) [Example 325]             3.0
3  COC(=O)COc1ccc(C)cc1-c1noc2cc(F)c(-n3c(=O)cc(C(F)(F)F)n(C)c3=O)cc12 [Example 359]             7.3

Query Cn1c(C(F)(F)F)cc(=O)n(-c2cc3c(CC#N)nsc3cc2F)c1=O [Example 379] yields herbicidal effect rating ORYSAT of 8.5

----------
system: Oryza sativa, (L.) Tebonnet; test: Rice tolerance to post-transplant applications under flooded paddy conditions (Example 187), ORYSAT (Rice, Tebonnet); conditions: Rate 0.0320 kg/ha, rated three to four weeks after treatment; further: meaning of each grade not given here
Measured herbicidal effect rating ORYSAT values are reported for all entries that follow.
Just the number, please, no unit after it.

Below: 5 compounds and their reported herbicidal effect rating ORYSAT.
> print(dat)
                                   compound  recorded.value
1  CC(C#N)c1nsc2ccc(-n3c(=O)cc(C(F)(F)F)n(C)c3=O)cc12 (centres unmarked)             5.0
2  Cn1c(C(F)(F)F)cc(=O)n(-c2ccc3snc(/C=C/CBr)c3c2)c1=O             1.0
3  Cn1c(C(F)(F)F)cc(=O)n(-c2ccc3snc(COCc4ccc([N+](=O)[O-])cc4)c3c2)c1=O             0.0
4  CC(C)Oc1cccc(-c2nsc3ccc(-n4c(=O)cc(C(F)(F)F)n(C)c4=O)cc23)c1             2.0
5  CC(C)C=C(C#N)c1nsc2ccc(-n3c(=O)cc(C(F)(F)F)n(C)c3=O)cc12             2.0

Considering COC(=O)C(C)Oc1ccc(OC)cc1-c1nsc2ccc(-n3c(=O)cc(C(F)(F)F)n(C)c3=O)cc12 (centres unmarked) , its herbicidal effect rating ORYSAT with Oryza sativa, (L.) Tebonnet was recorded as 2.0

Considering `CCOP(=O)(Cc1nsc2cc(F)c(-n3c(=O)cc(C(F)(F)F)n(C)c3=O)cc12)OCC` , its herbicidal effect rating ORYSAT with Oryza sativa, (L.) Tebonnet was recorded as 5.5

Considering `CN(C)C(=O)c1nsc2ccc(-n3c(=O)cc(C(F)(F)F)n(C)c3=O)cc12` , its herbicidal effect rating ORYSAT with Oryza sativa, (L.) Tebonnet was recorded as 3.0

----------
tested on: Oryza sativa, (L.) Tebonnet; test: Rice tolerance to post-transplant applications under flooded paddy conditions (Example 187), ORYSAT (Rice, Tebonnet); settings: Rate 0.2500 kg/ha, rated 3-4 weeks after treatment; further: meaning of each grade not given here
Measured herbicidal effect rating ORYSAT values are reported for all entries that follow.

Below: 2 compounds and their reported herbicidal effect rating ORYSAT.
> print(dat)
                                   compound                tested.target                     readout.type  recorded.value
1  C#CC(C)OC(=O)C(C)(C)Oc1ccc(C)cc1-c1nsc2ccc(-n3c(=O)cc(C(F)(F)F)n(C)c3=O)cc12 (stereo not drawn)  Oryza sativa, (L.) Tebonnet  herbicidal effect rating ORYSAT             9.0
2  Cc1ccc(OCC(=O)C(C)(C)C)c(-c2nsc3ccc(-n4c(=O)cc(C(F)(F)F)n(C)c4=O)cc23)c1  Oryza sativa, (L.) Tebonnet  herbicidal effect rating ORYSAT             1.0

Please examine the following record next.
Query `COCCOC(=O)C(C)(C)Oc1ccc(C)cc1-c1nsc2ccc(-n3c(=O)cc(C(F)(F)F)n(C)c3=O)cc12` yields herbicidal effect rating ORYSAT of 7.0
